tested_on: wild type BTK [BTK(WT)] (Homo sapiens (Human), UniProt Q06187)
Sequence (Q06187 whole entry): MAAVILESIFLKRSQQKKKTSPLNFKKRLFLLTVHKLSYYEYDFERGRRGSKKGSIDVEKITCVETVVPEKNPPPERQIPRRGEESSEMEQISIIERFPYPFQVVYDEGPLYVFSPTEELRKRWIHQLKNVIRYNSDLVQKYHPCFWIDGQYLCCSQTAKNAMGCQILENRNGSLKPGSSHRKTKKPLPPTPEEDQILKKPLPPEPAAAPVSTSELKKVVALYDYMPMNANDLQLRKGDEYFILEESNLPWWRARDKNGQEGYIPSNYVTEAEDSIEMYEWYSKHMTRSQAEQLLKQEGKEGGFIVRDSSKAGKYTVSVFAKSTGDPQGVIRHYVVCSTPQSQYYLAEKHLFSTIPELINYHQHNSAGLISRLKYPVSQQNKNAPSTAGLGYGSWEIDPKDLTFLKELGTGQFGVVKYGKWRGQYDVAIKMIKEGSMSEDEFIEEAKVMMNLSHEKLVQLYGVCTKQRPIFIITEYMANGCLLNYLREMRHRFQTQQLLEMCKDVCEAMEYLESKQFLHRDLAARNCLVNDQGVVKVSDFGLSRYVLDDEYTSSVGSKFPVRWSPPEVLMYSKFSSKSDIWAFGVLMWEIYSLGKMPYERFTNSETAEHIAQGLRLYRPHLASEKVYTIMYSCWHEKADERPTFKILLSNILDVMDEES
assay_protocol: C481S Mutant BTK Inhibitory Activity Test, wild type BTK (mobility shift assay)
particulars: 120 μM ATP
assay_endpoint: IC50 (nM)

[
  {
    "structure_notation": "CN1CCN(Cc2ccc(-c3cc4c(-c5cccc(-n6ccc7cc(C8CC8)cc(F)c7c6=O)c5CO)nc(N)nc4[nH]3)cc2)CC1",
    "assay_endpoint": "IC50",
    "value": 0.33
  },
  {
    "structure_notation": "Nc1nc(-c2cccc(-n3ccc4cc(C5CC5)cc(F)c4c3=O)c2CO)c2cc(C3=CCNCC3)[nH]c2n1",
    "assay_endpoint": "IC50",
    "value": 0.41
  },
  {
    "structure_notation": "CCN(CC)Cc1ccc(-c2cc3c(-c4cccc(-n5ccc6cc(C7CC7)cc(F)c6c5=O)c4CO)nc(N)nc3[nH]2)cc1",
    "assay_endpoint": "IC50",
    "value": 0.43
  },
  {
    "structure_notation": "CN1CCN(C(=O)N2CC=C(c3cc4c(-c5cccc(-n6ccc7cc(C8CC8)cc(F)c7c6=O)c5CO)nc(N)nc4[nH]3)CC2)CC1",
    "assay_endpoint": "IC50",
    "value": 0.39
  },
  {
    "structure_notation": "Nc1nc(-c2cccc(-n3ccc4cc(C5CC5)cc(F)c4c3=O)c2CO)c2cc(C3=CCN(C(=O)N4CCCC4)CC3)[nH]c2n1",
    "assay_endpoint": "IC50",
    "value": 0.94
  },
  {
    "structure_notation": "CCC(=O)N1CC=C(c2cc3c(-c4cccc(-n5ccc6cc(C7CC7)cc(F)c6c5=O)c4CO)nc(N)nc3[nH]2)CC1",
    "assay_endpoint": "IC50",
    "value": 0.41
  },
  {
    "structure_notation": "Nc1nc(-c2cccc(-n3ccc4cc(C5CC5)cc(F)c4c3=O)c2CO)c2cc(-c3ccnc(F)c3)[nH]c2n1",
    "assay_endpoint": "IC50",
    "value": 1.11
  },
  {
    "structure_notation": "Nc1nc(-c2cccc(-n3ccc4cc(C5CC5)cc(F)c4c3=O)c2CO)c2cc(-c3ccc(CN4CCCC4)cc3)[nH]c2n1",
    "assay_endpoint": "IC50",
    "value": 0.51
  },
  {
    "structure_notation": "CN(C)Cc1ccc(-c2cc3c(-c4cccc(-n5ccc6cc(C7CC7)cc(F)c6c5=O)c4CO)nc(N)nc3[nH]2)cc1",
    "assay_endpoint": "IC50",
    "value": 0.43
  },
  {
    "structure_notation": "Nc1nc(-c2cccc(-n3ccc4cc(C5CC5)cc(F)c4c3=O)c2CO)c2cc(-c3ccc(CN4CCNC(=O)C4)cc3)[nH]c2n1",
    "assay_endpoint": "IC50",
    "value": 0.47
  },
  {
    "structure_notation": "CS(=O)(=O)N1CC=C(c2cc3c(-c4cccc(-n5ccc6cc(C7CC7)cc(F)c6c5=O)c4CO)nc(N)nc3[nH]2)CC1",
    "assay_endpoint": "IC50",
    "value": 0.34
  },
  {
    "structure_notation": "Nc1nc(-c2cccc(-n3ccc4cc(C5CC5)cc(F)c4c3=O)c2CO)c2nc(-c3ccccc3)[nH]c2n1",
    "assay_endpoint": "IC50",
    "value": 0.97
  },
  {
    "structure_notation": "Nc1nc(-c2cccc(-n3ccc4cc(C5CC5)cc(F)c4c3=O)c2CO)c2cc(-c3cccc(F)n3)[nH]c2n1",
    "assay_endpoint": "IC50",
    "value": 0.87
  }
]
